target: Vascular endothelial growth factor receptor 2 (Homo sapiens, UniProt P35968)
Sequence (P35968 whole entry): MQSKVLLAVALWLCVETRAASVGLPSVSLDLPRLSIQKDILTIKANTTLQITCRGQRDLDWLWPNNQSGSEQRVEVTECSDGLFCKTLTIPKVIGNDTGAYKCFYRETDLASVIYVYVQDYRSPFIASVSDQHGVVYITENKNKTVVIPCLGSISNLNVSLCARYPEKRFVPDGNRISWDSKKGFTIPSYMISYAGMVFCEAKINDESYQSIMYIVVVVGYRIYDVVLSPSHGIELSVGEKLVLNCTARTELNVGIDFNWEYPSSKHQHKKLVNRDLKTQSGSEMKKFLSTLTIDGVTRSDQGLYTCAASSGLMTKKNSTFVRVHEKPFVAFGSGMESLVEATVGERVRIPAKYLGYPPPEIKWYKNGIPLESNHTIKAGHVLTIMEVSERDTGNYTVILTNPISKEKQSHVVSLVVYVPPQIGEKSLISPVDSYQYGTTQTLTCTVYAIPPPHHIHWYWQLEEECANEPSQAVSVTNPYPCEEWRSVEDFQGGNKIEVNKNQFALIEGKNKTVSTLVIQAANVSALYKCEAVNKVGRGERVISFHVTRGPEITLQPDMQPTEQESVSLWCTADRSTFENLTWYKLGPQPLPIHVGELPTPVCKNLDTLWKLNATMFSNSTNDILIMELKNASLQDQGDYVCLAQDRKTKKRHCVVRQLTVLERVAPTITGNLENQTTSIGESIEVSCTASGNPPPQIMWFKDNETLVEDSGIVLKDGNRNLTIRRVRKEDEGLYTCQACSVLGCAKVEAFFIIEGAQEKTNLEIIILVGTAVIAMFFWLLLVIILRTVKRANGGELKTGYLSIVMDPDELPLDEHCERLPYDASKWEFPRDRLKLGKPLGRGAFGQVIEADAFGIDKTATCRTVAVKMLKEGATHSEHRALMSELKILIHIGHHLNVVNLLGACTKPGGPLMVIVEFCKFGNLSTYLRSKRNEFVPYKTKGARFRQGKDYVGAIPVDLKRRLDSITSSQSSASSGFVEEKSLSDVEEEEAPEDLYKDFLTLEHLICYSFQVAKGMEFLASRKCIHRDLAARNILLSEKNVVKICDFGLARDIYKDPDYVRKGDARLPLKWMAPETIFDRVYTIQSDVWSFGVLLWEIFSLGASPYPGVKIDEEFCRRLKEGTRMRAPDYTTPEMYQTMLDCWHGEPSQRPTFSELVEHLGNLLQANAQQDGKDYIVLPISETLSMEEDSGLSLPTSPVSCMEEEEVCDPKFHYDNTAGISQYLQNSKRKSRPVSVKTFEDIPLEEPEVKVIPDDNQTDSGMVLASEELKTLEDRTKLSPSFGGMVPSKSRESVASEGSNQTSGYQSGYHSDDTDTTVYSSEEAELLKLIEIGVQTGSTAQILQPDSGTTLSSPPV
readout kind: IC50 (nM)
// units = nM; emit number, no label

Example compounds with recorded IC50:
- compound smiles: "CC(=O)Nc1cn2cc(-c3cc(NC(=O)c4cccc(Cl)c4)ccc3C)ccc2n1"
  unit text: "nM"
  reading: 2700
- compound smiles: "CC(=O)Nc1cn2cc(-c3cc(NC(=O)c4cccc(C(C)(C)C)c4)ccc3C)ccc2n1"
  unit text: "nM"
  reading: 44
- compound smiles: "CC(=O)Nc1cn2cc(-c3cc(NC(=O)c4ccccc4)ccc3C)ccc2n1"
  unit text: "nM"
  reading: 11000
- compound smiles: "CC(=O)Nc1cn2cc(-c3cc(NC(=O)c4cc(C(F)(F)F)ccn4)ccc3C)ccc2n1"
  unit text: "nM"
  reading: 2000

Continue with the next compound.
Q. Please report the measured IC50 for CC(=O)Nc1cn2cc(-c3cc(NC(=O)c4ccc(CN5CCN(C)CC5)c(C(F)(F)F)c4)ccc3C)ccc2n1
A. 110

---

experiment: Half life in mouse at 20 mg/kg, po administered as single dose; type: ADME, organism-based; details: in vivo
readout kind: half-life

Q. Indicate its recorded half-life; the molecule in question is CC(=O)Nc1cn2cc(-c3cc(NC(=O)c4cccc(C(F)(F)F)c4)ccc3C)ccc2n1
A. 2.45 h

---

target: MAP kinase p38 (Homo sapiens, UniProt O15264+Q15759+Q16539+P53778); test: Inhibition of P38 (unknown origin); format: protein assay
readout kind: IC50 (µM)
I only need the number, in µM, no unit after it.

# example entries with known answers
- compound smiles: "CC(=O)Nc1cn2cc(-c3cc(NC(=O)c4cc(N5CCN(C)C[C@@H]5C)cc(C(F)(F)F)c4)ccc3C)ccc2n1"
  readout kind: "IC50"
  reading: 0.002
- compound smiles: "CC(=O)Nc1cn2cc(-c3cc(NC(=O)c4ccccc4)ccc3C)ccc2n1"
  readout kind: "IC50"
  reading: 1.6

Q. Give the reported value of IC50 for this record: CC(=O)Nc1cn2cc(-c3cc(NC(=O)c4cccc(C(C)(C)C)c4)ccc3C)ccc2n1
A. 0.002

Q. Indicate the recorded IC50 value for this compound: CC(=O)Nc1cn2cc(-c3cc(NC(=O)c4cccc(Cl)c4)ccc3C)ccc2n1
A. 3.1

Q. State its IC50: CC(=O)Nc1cn2cc(-c3cc(NC(=O)c4cc(C(F)(F)F)ccn4)ccc3C)ccc2n1
A. 0.66

Q. Return reported IC50. Input compound: CC(=O)Nc1cn2cc(-c3cc(NC(=O)c4cccc(C(F)(F)F)c4)ccc3C)ccc2n1
A. 0.22

---

experiment: Oral bioavailability in mouse at 20 mg/kg administered as single dose; type: ADME, organism-based; details: in vivo
readout kind: bioavailability (%)
Could you give me the number in %? Just the number is fine.

Q. Tell us which bioavailability value is on record for CC(=O)Nc1cn2cc(-c3cc(NC(=O)c4cccc(C(F)(F)F)c4)ccc3C)ccc2n1
A. 73

---

test system: A-375; assay: Antiproliferative activity against human A375 cells; type: functional, cell-based
Param label: returns true when EC50 < 100 nM, returns false otherwise, including exact equality.

- compound smiles: "CC(=O)Nc1cn2cc(-c3cc(NC(=O)c4cccc(C(C)(C)C)c4)ccc3C)ccc2n1"
  qualitative label: "true"
- compound smiles: "CC(=O)Nc1cn2cc(-c3cc(NC(=O)c4cc(C(F)(F)F)ccn4)ccc3C)ccc2n1"
  qualitative label: "false"
- compound smiles: "CC(=O)Nc1cn2cc(-c3cc(NC(=O)c4ccc(CN5CCN(C)CC5)c(C(F)(F)F)c4)ccc3C)ccc2n1"
  qualitative label: "false"
- compound smiles: "CC(=O)Nc1cn2cc(-c3cc(NC(=O)c4cccc(C(F)(F)F)c4)ccc3C)ccc2n1"
  qualitative label: "true"

For the next question, use this molecule.
Q. Quick check: EC50 of CC(=O)Nc1cn2cc(-c3cc(NC(=O)c4cccc(C(F)(F)F)n4)ccc3C)ccc2n1 under 100 nM?
A. false
